- assayed system: Nitric oxide synthase, inducible (Mus musculus, UniProt P29477)
- Sequence (P29477 whole entry): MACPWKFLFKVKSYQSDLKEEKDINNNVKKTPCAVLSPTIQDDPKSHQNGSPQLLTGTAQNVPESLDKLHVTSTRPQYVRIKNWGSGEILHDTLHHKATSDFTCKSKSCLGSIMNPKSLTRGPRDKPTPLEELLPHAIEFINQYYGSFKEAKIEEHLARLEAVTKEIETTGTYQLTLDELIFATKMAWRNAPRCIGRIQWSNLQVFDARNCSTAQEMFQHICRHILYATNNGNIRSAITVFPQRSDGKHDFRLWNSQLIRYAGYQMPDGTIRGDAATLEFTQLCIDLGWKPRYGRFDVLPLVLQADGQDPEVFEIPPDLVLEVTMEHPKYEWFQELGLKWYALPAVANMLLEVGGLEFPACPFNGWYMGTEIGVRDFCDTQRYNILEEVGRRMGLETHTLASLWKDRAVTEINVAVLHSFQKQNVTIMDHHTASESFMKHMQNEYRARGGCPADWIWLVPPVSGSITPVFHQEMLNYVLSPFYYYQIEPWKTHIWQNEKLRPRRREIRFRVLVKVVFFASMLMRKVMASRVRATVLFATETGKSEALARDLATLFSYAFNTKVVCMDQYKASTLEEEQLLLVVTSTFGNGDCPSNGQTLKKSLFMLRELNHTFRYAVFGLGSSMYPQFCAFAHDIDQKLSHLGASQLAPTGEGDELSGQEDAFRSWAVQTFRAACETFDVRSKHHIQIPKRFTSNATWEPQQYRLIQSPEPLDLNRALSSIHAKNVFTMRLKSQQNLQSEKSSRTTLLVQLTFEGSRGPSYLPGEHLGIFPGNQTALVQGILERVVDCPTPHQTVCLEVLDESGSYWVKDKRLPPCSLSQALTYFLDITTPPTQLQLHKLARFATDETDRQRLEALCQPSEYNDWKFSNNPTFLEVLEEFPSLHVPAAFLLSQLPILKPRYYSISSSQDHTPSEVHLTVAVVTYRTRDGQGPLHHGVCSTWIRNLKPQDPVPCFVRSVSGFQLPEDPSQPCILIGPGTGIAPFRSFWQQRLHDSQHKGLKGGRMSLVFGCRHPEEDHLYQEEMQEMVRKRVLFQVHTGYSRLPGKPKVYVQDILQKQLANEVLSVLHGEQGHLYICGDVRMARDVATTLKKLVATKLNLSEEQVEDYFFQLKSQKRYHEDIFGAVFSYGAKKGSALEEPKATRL
- run description: Inhibition of iNOS-mediated NO production in LPS-stimulated mouse RAW264.7 cells by Griess method
pIC50: −log10 of the molar value.
Entries and their pIC50

| molecule | assayed system | pIC50 |
| --- | --- | --- |
| O=c1cc(-c2ccc(O)cc2)oc2cc(Oc3ccc4oc(-c5ccc(O)cc5O)cc(=O)c4c3)ccc12 | Nitric oxide synthase, inducible (Mus musculus, UniProt P29477) | < 4.30 |
| COc1ccc(-c2cc(=O)c3cc(Oc4ccc5c(=O)cc(-c6ccc(OC)cc6OC)oc5c4)ccc3o2)cc1 | Nitric oxide synthase, inducible (Mus musculus, UniProt P29477) | < 4.30 |
| O=c1cc(-c2ccc(O)cc2O)oc2cc(Oc3ccc4oc(-c5ccc(O)cc5O)cc(=O)c4c3)ccc12 | Nitric oxide synthase, inducible (Mus musculus, UniProt P29477) | 5.00 |
| COc1ccc(-c2cc(=O)c3ccc(Oc4ccc5oc(-c6ccc(OC)cc6OC)cc(=O)c5c4)cc3o2)cc1 | Nitric oxide synthase, inducible (Mus musculus, UniProt P29477) | < 4.30 |
| O=c1cc(-c2ccc(O)cc2)oc2cc(Oc3ccc4oc(-c5ccccc5O)cc(=O)c4c3)ccc12 | Nitric oxide synthase, inducible (Mus musculus, UniProt P29477) | 5.00 |
| O=c1cc(-c2ccc(O)cc2)oc2ccc(Oc3ccc4c(=O)cc(-c5ccc(O)cc5O)oc4c3)cc12 | Nitric oxide synthase, inducible (Mus musculus, UniProt P29477) | 4.30 |
| COc1ccc(-c2cc(=O)c3ccc(Oc4ccc5oc(-c6ccc(OC)cc6OC)cc(=O)c5c4)cc3o2)c(OC)c1 | Nitric oxide synthase, inducible (Mus musculus, UniProt P29477) | < 4.30 |

Let me know recorded pIC50 for O=c1cc(-c2ccccc2)oc2cc(Oc3ccc4oc(-c5ccccc5)cc(=O)c4c3)ccc12 , thanks.
< 4.30

* * *

# IC50 per entry
- assayed system: Prostaglandin G/H synthase 2 (Mus musculus, UniProt Q05769)
- Sequence (Q05769 whole entry): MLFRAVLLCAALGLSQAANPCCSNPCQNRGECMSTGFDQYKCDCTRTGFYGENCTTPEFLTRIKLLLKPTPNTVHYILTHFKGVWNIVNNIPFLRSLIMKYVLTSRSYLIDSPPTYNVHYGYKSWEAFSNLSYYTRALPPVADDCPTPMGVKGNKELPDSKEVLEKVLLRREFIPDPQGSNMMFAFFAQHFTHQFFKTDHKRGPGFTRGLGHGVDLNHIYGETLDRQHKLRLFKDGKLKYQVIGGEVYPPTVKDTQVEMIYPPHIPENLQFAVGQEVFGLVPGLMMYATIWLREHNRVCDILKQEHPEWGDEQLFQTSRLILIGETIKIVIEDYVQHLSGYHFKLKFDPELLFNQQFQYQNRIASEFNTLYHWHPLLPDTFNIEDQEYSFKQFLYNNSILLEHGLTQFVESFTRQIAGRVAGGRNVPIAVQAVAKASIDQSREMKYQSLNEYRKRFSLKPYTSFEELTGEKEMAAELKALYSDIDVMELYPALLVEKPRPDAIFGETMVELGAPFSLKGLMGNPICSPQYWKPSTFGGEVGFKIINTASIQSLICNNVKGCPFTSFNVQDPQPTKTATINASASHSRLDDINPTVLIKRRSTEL
- run description: Inhibition of COX2-mediated PGE2 production in LPS-stimulated mouse RAW264.7 cells by ELISA

Here's what some known entries look like.
| molecule | observed value |
| --- | --- |
| O=c1cc(-c2ccccc2)oc2cc(Oc3ccc4oc(-c5ccccc5O)cc(=O)c4c3)ccc12 | > 50 µM |
| O=c1cc(-c2ccc(O)cc2)oc2cc(Oc3ccc4oc(-c5ccc(O)cc5)cc(=O)c4c3)ccc12 | > 50 µM |

// Input: COc1ccc(-c2cc(=O)c3ccc(Oc4ccc5oc(-c6ccc(OC)cc6OC)cc(=O)c5c4)cc3o2)c(OC)c1 . Output its IC50 only.
50 µM

State its IC50 for this compound: O=c1cc(-c2ccccc2)oc2cc(Oc3ccc4oc(-c5ccc(O)cc5O)cc(=O)c4c3)ccc12
> 50 µM

Tell me its IC50 given O=c1cc(-c2ccc(O)cc2)oc2cc(Oc3ccc4oc(-c5ccccc5O)cc(=O)c4c3)ccc12 as the entry.
> 50 µM

Give the value of IC50 reported for the following: O=c1cc(-c2ccccc2)oc2cc(Oc3ccc4oc(-c5ccccc5)cc(=O)c4c3)ccc12
< 2 µM

Item O=c1cc(-c2ccc(O)cc2)oc2ccc(Oc3ccc4c(=O)cc(-c5ccc(O)cc5O)oc4c3)cc12 : provide IC50
> 50 µM

Return IC50 (reported value) for this compound: COc1ccc(-c2cc(=O)c3cc(Oc4ccc5c(=O)cc(-c6ccccc6)oc5c4)ccc3o2)cc1
2 µM

Give the reported value of IC50 for this record: COc1ccccc1-c1cc(=O)c2cc(Oc3ccc4c(=O)cc(-c5ccccc5)oc4c3)ccc2o1
> 50 µM

Quote IC50 reported for COc1ccc(-c2cc(=O)c3cc(Oc4ccc5c(=O)cc(-c6ccccc6)oc5c4)ccc3o2)c(OC)c1 please.
2 µM
